Ki data for h5-HT5A receptor (Homo sapiens) follow.

Consider the reported Ki for these compounds:
INSERT INTO results (compound, result) VALUES
  ('COc1ccccc1CNC(=N)Nc1cnc2ccccc2c1 [Example 16, acetate]', '< 10000 nM'),
  ('COc1cccc(OC)c1CNC(=N)Nc1cccc(Cc2ccccc2)n1 [Example 70, acetate]', '< 100 nM'),
  ('COc1cccc(C)c1CNC(=N)Nc1ccc(I)cn1 [Example 93, acetate]', '< 100 nM');

Shift focus to the following entry.
Prompt line: Under h5-HT5A receptor (Homo sapiens): Ki value of Cc1ccc(NC(=N)NCc2c(Cl)cccc2Oc2ccccc2)nc1 [Example 27, acetate] ?
Response line: < 100 nM
